Recorded melting point values for a group of compounds are listed next.
experimental_readout: melting point

[[record]]
compound = "O=[N+]([O-])c1cc(Br)ccc1-c1ccc(Cl)cc1Cl"
value = "112 to 115 °C"

[[record]]
compound = "COc1cc(C(F)(F)F)nc(NC(=O)Oc2ccccc2)n1"
value = "85 to 88 °C"

[[record]]
compound = "CC1=C(c2ccc(O)cc2)C(=O)c2c(O)cc(O)cc21"
value = "126 to 129 °C"

[[record]]
compound = "COc1ccc2cc(-c3ccc(-c4ccccc4)[nH]3)ccc2c1"
value = "208 to 210 °C"

[[record]]
compound = "OCc1ccc(Nc2ccccc2)nc1"
value = "119 to 122 °C"

[[record]]
compound = "Cn1c(=O)c(-c2ccc(Cl)cc2Cl)cc2c3cc(-c4ncco4)ccc3n(C)c21"
value = "232 to 233 °C"

[[record]]
compound = "CCOC12CC(C)(C)C(O1)C(OC(=O)c1ccc(N)cc1)C=C2C (stereo not drawn)"
value = "130 to 132 °C"

[[record]]
compound = "COc1cc(C(C)=O)ccc1-c1ccc(F)cc1"
value = "75 to 77 °C"

[[record]]
compound = "Nc1ccc(NC(=O)CCC(=O)O)cc1"
value = "180 to 181 °C"

[[record]]
compound = "CCCCc1oc2ccccc2c1C(=O)N(C)Cc1ccc(-c2ccc(OC(Cc3ccccc3)C(=O)O)c(Br)c2)cc1 (stereo not drawn)"
value = "79 to 86 °C"

[[record]]
compound = "CCCCn1c(=O)[nH]c2cc(Cl)cc(Cl)c2c1=O"
value = "198 to 201 °C"

[[record]]
compound = "CSc1c([N+](=O)[O-])c2cc(Cl)ccc2[nH]c1=O"
value = "213 °C"

[[record]]
compound = "CN1c2ccc(-c3ccc4ccccc4c3)cc2Sc2cc(-c3ccc4ccccc4c3)ccc21"
value = "276 to 281 °C"

[[record]]
compound = "Nc1ccc(Cl)c(C(=O)NCC23CC4CC(CC(C4)C2)C3)c1"
value = "214 °C"

[[record]]
compound = "CSc1cc(C)nc(SC)c1NC(=O)CN1CCN(CCSc2nc3ccccc3s2)CC1"
value = "136 to 139 °C"

[[record]]
compound = "Cn1c(=O)c2c(ncn2CC(O)Cc2noc(-c3ccccc3)n2)n(C)c1=O (stereo not drawn)"
value = "179 to 180 °C"

[[record]]
compound = "O=c1oc2c(O)c(O)ccc2c2cc(O)c(O)cc12"
value = "> 250 °C"

[[record]]
compound = "CC1C(c2ccc([N+](=O)[O-])cc2)CC(=O)N1C (stereo not drawn)"
value = "94 to 95 °C"

[[record]]
compound = "CC1=Nc2c(C)nn(CC(F)(F)F)c2C2=NC(C)CN12 (stereo not drawn)"
value = "91 to 95 °C"

[[record]]
compound = "COc1ccnc(CCc2nc3cc(-c4ccc(S(=O)(=O)N(C)C)c(F)c4)cnc3[nH]2)c1"
value = "211 to 212 °C"

[[record]]
compound = "Cc1cccc2nc(CCl)cn12"
value = "120 to 121 °C"

[[record]]
compound = "CC(C)(C)OC(=O)NC(C)(C)c1ccc(-c2nc(Nc3ccc(-n4ccnc4)cc3)ncc2Cl)cc1"
value = "218 to 220 °C"

[[record]]
compound = "CN1C(=O)CC[C@]2(C)c3ccc(Sc4ccc5cc(F)ccc5n4)cc3CC[C@@H]12"
value = "152 to 155 °C"

[[record]]
compound = "CCCOc1ncc(N(C)C)cc1-c1nc2c(CCC)nn(C)c2c(=O)[nH]1"
value = "162 °C"

[[record]]
compound = "Cc1c(C)n(CC2CC2C)c2c(OCc3ccc(F)cc3F)nncc12 (stereo not drawn)"
value = "101 to 102 °C"

[[record]]
compound = "COC(=O)c1cn(-c2ncccn2)cc1C"
value = "108 °C"

[[record]]
compound = "O=S(=O)(Nc1ncnc(OCCO)c1-c1ccc(Cl)cc1)c1ccc(C(F)(F)F)cc1"
value = "160 to 162 °C"

[[record]]
compound = "O=C(O)CCC1CCN(CC(=O)OC2CCCCC2)CC1"
value = "85 to 88 °C"

